System: HTT
assay.method.text: Splicing RT-qPCR assay, HTT mRNA canonical junction (CJ) and alternative junction (AJ)
Type: cell-based, human
condition: RT-qPCR panel, canonical junction mRNA; compound concentration having 50% response in CJ decrease; read-out: HTT IC50 (decrease in CJ mRNA levels)
pIC50: −log10 of the molar value.
Could you please report measured pIC50 for the items listed next?

# example entries with known answers
>>> observed_measurement("c1cnn(-c2ccc(-c3cnc(N4CCNC(C5CC5)C4)nn3)c3cn[nH]c23)c1 (stereo not shown) [Compound 555]")
"> 7.00"
>>> observed_measurement("CNC1CCN(c2ncc(-c3ccc(-n4cccn4)c4[nH]ncc34)nn2)C1 (stereo not shown) [Compound 549]")
"5.00 to 6.00"
>>> observed_measurement("CN(c1ccc(-c2ccc(-c3cn[nH]c3)c3ncsc23)nn1)[C@H]1C[C@H]2COC[C@@H](C1)N2 [Compound 356]")
"> 7.00"

// next entry
Q: Look up pIC50 with HTT for this molecule: CC(C)(C)NC1CCN(c2ccc(-c3ccc(-c4cn[nH]c4)c4ncsc34)nn2)C1 (stereo not shown) [Compound 336]
Ans: 6.00 to 7.00

* * *

Test system: MYB
assay.method.text: Splicing RT-qPCR assay, MYB mRNA canonical junction (CJ) and alternative junction (AJ)
Assay type: cell-based, human
condition: Homo sapiens, 24 h, decrease in CJ mRNA; A673 or K562 cells, 24 hours treatment, RT-qPCR; read-out: MYB CJ IC50
pIC50: −log10 of the molar value.
measured.property: pIC50

>>> observed_measurement("Fc1cc(-c2ccc(O[C@@H]3C[C@H]4CC[C@@H](C3)N4)nn2)c2sncc2c1-c1cn[nH]c1 [Compound 327]")
"> 7.00"
>>> observed_measurement("CN(c1ccc(-c2ccc(-c3cn[nH]c3)c3ncsc23)nn1)[C@@H]1C[C@H]2CC(F)(F)[C@@H](C1)N2 (stereo in doubt) [Compound 379]")
"6.00 to 7.00"
>>> observed_measurement("CC1(C)CC(Oc2ccc(-c3ccc(-c4cn[nH]c4)c4ncsc34)nn2)CCN1 (stereo not shown) [Compound 182]")
"5.00 to 6.00"

Q: Using the record for Cn1ncc(-c2ccc(-c3ccc(N[C@@H]4C[C@H]5CC[C@@H](C4)N5)nn3)c3[nH]ncc23)n1 [Compound 322] , report its pIC50.
Ans: > 7.00

* * *

Tested on: Target C
assay.method.text: Splicing RT-qPCR panel, Target C canonical junction (CJ) mRNA
Assay type: cell-based, human
condition: Homo sapiens, RT-qPCR panel, canonical junction mRNA; compound concentration having 50% response in CJ decrease; read-out: Target C IC50 (decrease in CJ mRNA levels)
measured.property: IC50

>>> observed_measurement("CNC1CCN(c2ncc(-c3ccc(-c4cn[nH]c4)c4ncsc34)nn2)C1 (centres unmarked)")
"> 10000 nM"

Each of the following entries comes with a recorded value; kindly state IC50 for each.
1. c1cnn(-c2ccc(-c3cnc(N4CCC(NC5CC5)C4)nn3)c3cn[nH]c23)c1 (centres unmarked)
2. c1n[nH]cc1-c1ccc(-c2ccc(N3CC4(CCCNC4)C3)nn2)c2[nH]ncc12
3. c1n[nH]cc1-c1ccc(-c2ccc(N3CCNCC3)nn2)c2[nH]ncc12
4. C[C@H]1CN(c2ncc(-c3ccc(-c4cn[nH]c4)c4ncsc34)nn2)C[C@@H](C2CC2)N1
5. c1cnn(-c2ccc(-c3ccc(N[C@@H]4C[C@H]5CC[C@@H](C4)N5)nn3)c3scnc23)c1
6. c1n[nH]cc1-c1ccc(-c2ccc(O[C@@H]3C[C@H]4CC[C@@H](C3)N4)nn2)c2[nH]ncc12
7. Fc1cc(-c2ccc(O[C@@H]3C[C@H]4CC[C@@H](C3)N4)nn2)c2[nH]ncc2c1-c1cn[nH]c1

Ans:
> 10000 nM
> 10000 nM
> 10000 nM
1000 to 10000 nM
100 to 1000 nM
100 to 1000 nM
100 to 1000 nM

* * *

System: SMN2
assay.method.text: Splicing RT-qPCR panel, SMN2 canonical junction (CJ) mRNA
Assay type: cell-based, human
condition: Homo sapiens, gene panel, CJ qPCR, protocol of Example 142; read-out: SMN2 IC50 (decrease in CJ mRNA levels)
pIC50: −log10 of the molar value.
Could you please report measured pIC50 for the items listed next?

# example entries with known answers
>>> observed_measurement("COc1nc(-c2ccc(N3CCC(NC(C)(C)C)C3)nn2)ccc1-c1cn[nH]c1 (stereo not shown)")
"> 7.00"
>>> observed_measurement("COc1nc(-c2ccc(N(C)C3CC(C)(C)NC(C)(C)C3)nc2)ccc1-n1cccn1")
"5.00 to 6.00"
>>> observed_measurement("COc1nc(-c2ccc(N(C)C3CC(C)(C)NC(C)(C)C3)nn2)ccc1-c1cnn(C)n1")
"6.00 to 7.00"
>>> observed_measurement("COc1nc(-c2ccc(N(C)C3CC(C)(C)NC(C)(C)C3)nc2)ccc1-c1cnn(C)n1")
"6.00 to 7.00"
>>> observed_measurement("COc1nc(-c2ccc(OC3CC(C)(C)NC(C)(C)C3)nn2)ccc1-c1cnn(C)c1")
"> 7.00"
>>> observed_measurement("CCOc1nc(-c2ccc(OC3CC4CC(F)(F)C(C3)N4)nn2)ccc1-c1cn[nH]c1 (stereo not shown)")
"5.00 to 6.00"
>>> observed_measurement("COc1cnc(-c2ccc(-c3ccc(N(C)[C@@H]4C[C@H]5CC[C@@H](C4)N5)nn3)nc2OC)cn1")
"6.00 to 7.00"
>>> observed_measurement("CN(c1ccc(-c2ccc(-c3cn[nH]c3)c(OC(F)F)n2)nn1)[C@@H]1C[C@H]2CC[C@@H](C1)N2")
"> 7.00"
>>> observed_measurement("COc1nc(-c2ccc(N(C)C3CC(C)(C)NC(C)(C)C3)nc2)ccc1-c1cnn(C)c1")
"5.00 to 6.00"
>>> observed_measurement("CC1(C)CC(Oc2ccc(-c3ccc(-c4cn[nH]c4)c(OC4CC4)n3)nn2)CC(C)(C)N1")
"6.00 to 7.00"

Each of the following entries comes with a recorded value; kindly state pIC50 for each.
1. COc1nc(-c2ccc(N3CCC(NC(C)(C)C)C3)nn2)ccc1-n1cccn1 (stereo not shown)
2. COc1nc(-c2ccc(N(C)C3CC(C)(C)NC(C)(C)C3)nn2)ccc1-c1cn[nH]c1

Ans:
["5.00 to 6.00", "> 7.00"]

Each of the following entries comes with a recorded value; kindly state pIC50 for each.
1. CN(c1ccc(-c2ccc(-c3cn[nH]c3)c(Cl)n2)nn1)[C@@H]1C[C@H]2CC[C@@H](C1)N2
2. COc1nc(-c2ccc(N[C@@H]3C[C@H]4CC[C@@H](C3)N4)nn2)ccc1-c1cnn(C)n1
3. COc1nc(-c2ccc(N(C)C3CC(C)(C)NC(C)(C)C3)nc2)ccc1-c1cn[nH]c1
4. COc1nc(-c2ccc(N3CCC(NC4CC4)C3)nn2)ccc1-n1cccn1 (stereo not shown)

Ans:
> 7.00
> 7.00
> 7.00
5.00 to 6.00

* * *

System: SMN2
assay.method.text: Splicing RT-qPCR panel, SMN2 canonical junction (CJ) mRNA
Format: cell-based, human
condition: Homo sapiens, gene panel, CJ qPCR, protocol of Example 142; read-out: SMN2 IC50 (decrease in CJ mRNA levels)
Could you please report measured IC50 for the items listed next?

# example entries with known answers
>>> observed_measurement("COc1nc(-c2ccc(OC3CC(C)(C)NC(C)(C)C3)nn2)cc(F)c1-c1cn[nH]c1 [Compound 965]")
"< 0.1 µM"
>>> observed_measurement("COc1nc(-c2ccc(OC3CC4CC(F)(F)C(C3)N4)nn2)ccc1-c1ccnc(C)c1 (centres unmarked) [Compound 964]")
"> 10 µM"
>>> observed_measurement("COc1nc(-c2ccc(OC3CC(C)(C)NC(C)(C)C3)nn2)ccc1-n1cccn1 [Compound 934]")
"1 to 10 µM"
>>> observed_measurement("COc1nc(-c2ccc(N(C)[C@@H]3C[C@H]4CC[C@@H](C3)N4)nn2)ccc1-c1cnc(C)cn1 [Compound 950]")
"< 0.1 µM"

Each of the following entries comes with a recorded value; kindly state IC50 for each.
1. COc1nc(-c2ccc(N(C)[C@@H]3C[C@H]4CC[C@@H](C3)N4)nn2)ccc1-c1cn[nH]c1 [Compound 906]
2. COc1nc(-c2cnc(N(C)[C@@H]3C[C@H]4CC[C@@H](C3)N4)nc2)ccc1-c1cn[nH]c1 [Compound 981]
3. COc1nc(-c2ncc(N(C)[C@@H]3C[C@H]4CC[C@@H](C3)N4)cn2)ccc1-c1cn[nH]c1 [Compound 997]
4. COc1nc(-c2ccc(NC3CCNCC3)nn2)ccc1-c1cnn(C)n1 [Compound 933]

Ans:
1. < 0.1 µM
2. 0.1 to 1 µM
3. > 10 µM
4. 1 to 10 µM
